# measurement.parameters: in p-xylene, 318.15 K

molecule	solubility (mole fraction)
CC12CCC(CC1=O)C2(C)C (stereo unspecified)	0.683

---

# measurement.parameters: in ethanol, 338.15 K
parameter.measured: solubility (mole fraction)

compound	readout.number
CC12CCC(CC1=O)C2(C)C (stereo unspecified)	0.63

---

# measurement.parameters: in ethanol, 318.15 K
parameter.measured: solubility (mole fraction)

compound	result
CC12CCC(CC1=O)C2(C)C (stereo unspecified)	0.451

---

# measurement.parameters: in acetone, 308.15 K

molecule	solubility (mole fraction)
CC12CCC(CC1=O)C2(C)C (stereo unspecified)	0.571

---

# measurement.parameters: in p-xylene, 313.15 K

compound	solubility (mole fraction)
CC12CCC(CC1=O)C2(C)C (stereo unspecified)	0.66

---

# measurement.parameters: in p-xylene, 328.15 K

compound	solubility (mole fraction)
CC12CCC(CC1=O)C2(C)C (stereo unspecified)	0.739

---

# measurement.parameters: in p-xylene, 338.35 K
parameter.measured: solubility (mole fraction)

molecule	parameter.measured	readout.number
CC12CCC(CC1=O)C2(C)C (stereo unspecified)	solubility (mole fraction)	0.795

---

# measurement.parameters: in ethanol, 313.15 K
parameter.measured: solubility (mole fraction)

compound	readout.number
CC12CCC(CC1=O)C2(C)C (stereo unspecified)	0.412

---

# measurement.parameters: in p-cymene, 317.95 K
parameter.measured: solubility (mole fraction)

compound	readout.number
CC12CCC(CC1=O)C2(C)C (stereo unspecified)	0.609

---

# measurement.parameters: in ethanol, 327.95 K
parameter.measured: solubility (mole fraction)

compound	parameter.measured	readout.number
CC12CCC(CC1=O)C2(C)C (stereo unspecified)	solubility (mole fraction)	0.538

---

# measurement.parameters: in p-xylene, 327.85 K
parameter.measured: solubility (mole fraction)

compound	readout.number
CC12CCC(CC1=O)C2(C)C (stereo unspecified)	0.736

---

# measurement.parameters: in acetone, 313.55 K
parameter.measured: solubility (mole fraction)

compound	readout.number
CC12CCC(CC1=O)C2(C)C (stereo unspecified)	0.594

---

# measurement.parameters: in acetone, 303.15 K

molecule	solubility (mole fraction)
CC12CCC(CC1=O)C2(C)C (stereo unspecified)	0.553

---

# measurement.parameters: in ethanol, 343.15 K
parameter.measured: solubility (mole fraction)

compound	parameter.measured	result
CC12CCC(CC1=O)C2(C)C (stereo unspecified)	solubility (mole fraction)	0.699

---

# measurement.parameters: in p-cymene, 308.05 K

compound	solubility (mole fraction)
CC12CCC(CC1=O)C2(C)C (stereo unspecified)	0.589

---

# measurement.parameters: in p-cymene, 328.15 K
parameter.measured: solubility (mole fraction)

molecule	readout.number
CC12CCC(CC1=O)C2(C)C (stereo unspecified)	0.631

---

# measurement.parameters: in p-cymene, 323.65 K

molecule	solubility (mole fraction)
CC12CCC(CC1=O)C2(C)C (stereo unspecified)	0.624

---

# measurement.parameters: in ethanol, 322.95 K
parameter.measured: solubility (mole fraction)

compound	parameter.measured	readout.number
CC12CCC(CC1=O)C2(C)C (stereo unspecified)	solubility (mole fraction)	0.508
